assay: molar heat capacity at constant pressure; conditions: 246.15 K; 101.33 kPa; Crystal; Small sample (50 mg) DSC
Consider the following molecules; for each one, report its molar heat capacity at constant pressure.
Answers are plain numbers, in J/K/mol.

These solved cases illustrate the format of a correct answer.
# Molecule, Unit of measure, molar heat capacity at constant pressure
data = [
    ("OC[C@@H](O)[C@@H](O)CO", "J/K/mol", 136.8),
    ("O[C@H]1[C@H](O)[C@@H](O)[C@H](O)[C@@H](O)[C@H]1O [cis-1,2,3,5-trans-4,6-cyclohexanehexol]", "J/K/mol", 178.19),
    ("OC[C@@H](O)[C@@H](O)[C@H](O)[C@H](O)CO", "J/K/mol", 191.37),
    ("OC[C@@H](O)[C@H](O)[C@@H](O)CO", "J/K/mol", 172.07),
    ("OC[C@H](O)C(O)[C@@H](O)CO [L-(-)-arabitol]", "J/K/mol", 169.88),
]

Reported molar heat capacity at constant pressure ( OC[C@@H](O)C(O)[C@H](O)CO ) = 165.01
